Test system: A498 renal
Assay: NCI-60 one-dose screen, 48 h
Conditions: 10 µM unless noted
This is part of a sample that, as a whole, favours compounds with a hit. Of some 83,000 tested, about 20% had one in any assay. Active and inactive are the calls of the source. How the source made its calls: active means growth percent below 10; inactive means the rest.
Outcome codes: active, inactive

compound	qualitativeLabel
O=C(/C=C/c1ccc(C(F)(F)F)cc1)c1ccc(Nc2nc(NCCO)nc(N3CCOCC3)n2)cc1	inactive
OC(CNC1CCCCC1)Cn1c2ccc(I)cc2c2cc(I)ccc21 (stereo unspecified)	inactive
COC(=O)/C(CCC=C(C)C)=C1\[C@@H](OC(C)=O)C[C@@]2(C)[C@H]1C[C@@H](O)[C@H]1[C@@]3(C)CC[C@H](NC(=O)c4cnccn4)[C@@H](C)[C@@H]3CC[C@@]12C	inactive
Nc1nc(N)c2c(n1)NC1(C=C(O)c3ccccc31)C1=C(N2)c2ccccc2C1=O (stereo unspecified)	inactive
Nc1no[n+]([O-])c1-c1nnc2c(n1)-c1ccccc1C2=O	inactive
NCCOc1ncccc1/C=C1\c2ccccc2-c2ccc(F)cc21	inactive
Nc1ccc(C2c3ccccc3Oc3ccccc32)cc1	inactive
CC(=O)O[C@@H]1/C=C/C(=O)N[C@@H](C)CCC/C=C/[C@@H]2CCC[C@H]21	inactive
NCCOc1ncccc1/C=C1\c2ccccc2-c2ccc([N+](=O)[O-])cc21	active
CC1(O)COCCCCOc2c(CN)cccc2NC(=O)c2nc(cnc2N)-c2ccc(cc2)S(=O)(=O)C(C)(C)C1 (stereo unspecified)	active
O=C(NC1CCN(Cc2ccccc2)CC1)c1cc2nc(-c3ccc(Cl)s3)cc(C(F)(F)F)n2n1	inactive
Clc1ccc(Nc2nnc(-c3ccc4c(c3)OCO4)o2)cc1	inactive
CCN1C(=O)N(CC)C2Nn3c(s/c(=C\c4ccccc4F)c3=O)=NC21 (stereo unspecified)	inactive
Cc1ccc2cc3c(N)c4c(C)ccc(C)c4nc3nc2c1	inactive
CN(O)c1nc(N(C)O)nc(N2CCOCC2)n1	inactive
CCN(CC)c1cc(C)c2cc(NC(=O)c3cccc(OC)c3)ccc2n1	inactive
CC(C)CCOc1ccc(-c2n[nH]c(C(F)(F)F)c2-c2cncc(C#N)c2)c(O)c1	active
NNC(=O)CNC(=O)Nc1n[nH]c(=S)s1	inactive
COc1cc(/C=C2\CCC/C(=C\c3cc(CN4CCCCC4)c(O)c(OC)c3)C2=O)cc(CN2CCCCC2)c1O	inactive
CCC(C)(C)C(=O)O[C@H]1C[C@@H](C)C=C2C=C[C@H](C)[C@H](CC[C@@H]3CC=CC(=O)O3)[C@H]21	inactive
O=C(Nc1ncc(Cc2cccc(C(F)(F)F)c2)s1)C1COc2ccccc2O1 (stereo unspecified)	inactive
CC[C@]1(O)C[C@@H]2CN(CCc3c([nH]c4ccccc34)[C@@](C(=O)OC)(c3cc4c(cc3OC)N(C)[C@H]3[C@@](O)(C(=O)OC)[C@H](OC(C)=O)[C@]5(CC)C=CCN6CC[C@]43[C@@H]65)C2)C1	active
C=C(C)CCC(C)N1CCC(N2CCC(C(=O)NCCc3ccccc3)CC2)CC1 (stereo unspecified)	inactive
CCOC(=O)c1sc(-c2ccc(OS(=O)(=O)c3cccs3)c(C=O)c2)nc1C	inactive
O=c1oc2ccc(F)cc2c(=O)n1-c1ccc(F)cc1F	active
CC(=O)c1ccc2oc(=O)n(Cc3ccc(C#N)cc3)c(=O)c2c1	inactive
CC(C)C[C@H](C(=O)N[C@@H](C)C(N)=O)N1CC=CCN(O)S1(=O)=O	inactive
CCOc1c(Br)cc(C2C(C(=O)OC)=CN(C)C=C2C(=O)OC)cc1OC	inactive
CC[C@]1(O)C[C@@H]2CN(CCc3c([nH]c4ccccc34)[C@@](C(=O)OC)(c3cc4c(cc3OC)N(C)[C@H]3[C@@](O)(C(=O)OC)[C@H](OC(=O)CCCBr)[C@]5(CC)C=CCN6CC[C@]43[C@@H]65)C2)C1	active
O=C(CCc1nnc2sc(Cc3ccccc3Cl)nn12)c1nc2ncccc2[nH]1	inactive
COc1ccc(C2=NN(/C=C3\SC(=O)NC3=Nc3ccc(F)cc3)C(c3ccc(F)cc3)C2)cc1 (stereo unspecified)	inactive
COC(=O)/C(CCC=C(C)C)=C1\[C@@H](OC(C)=O)C[C@@]2(C)[C@H]1C[C@@H](O)[C@H]1[C@@]3(C)CC[C@H](NCCO)[C@@H](C)[C@@H]3CC[C@@]12C	inactive
CCOc1cccc(/C=N/NC(=O)C(=O)Nc2cccc(C(F)(F)F)c2)c1O	inactive
CC(C)[C@H](NC(=O)Cn1cc(C(=O)O)nn1)C(=O)O	inactive
N#C/C(=C1\SC(=O)CN1c1ccccc1)c1nc2ccccc2s1	inactive
CCCCc1ccc(NS(=O)(=O)c2cc3c4c(c2)CCN4C(=O)CC3)cc1	active

---

System: SF-268 CNS
Test: NCI-60 one-dose screen, 48 h (100 = growth as untreated, 0 = no growth, -100 = all killed)
Conditions: 10 µM unless noted
Compounds without any hit were thinned out: in the full panel of roughly 83,000, 20% have a hit.
Doc: threshold 70% (exclusive). Items with growth beneath it return rule met; others return rule not met.

                                   molecule      target  qualitativelabel
0  Cc1ccc(Cc2cnc(NC(=O)CN3C(=O)/C(=C\c4ccccc4)SC3=S)s2)cc1  SF-268 CNS      rule not met
1  CC[C@@H](C)[C@H](NC(=O)Cn1cc(CNC(=O)[C@@H](NC(=O)OCc2ccccc2)C(C)C)nn1)C(=O)O  SF-268 CNS      rule not met
2             O=NN(Cc1cccnc1)C(=O)NC1CCCCC1  SF-268 CNS      rule not met
3  COc1cc(/C=C2\CCC/C(=C\c3cc(CN4CCCCC4)c(O)c(OC)c3)C2=O)cc(CN2CCCCC2)c1O  SF-268 CNS      rule not met
4              COc1ccc(CCN2C(=O)CCSC2=S)cc1  SF-268 CNS          rule met
5  CCCC(c1nnnn1C1CCCCC1)N1CCN(C(=O)c2ccco2)CC1 (stereo not given)  SF-268 CNS          rule met
6  Cc1c(-c2noc(-c3ccc([N+](=O)[O-])cc3)n2)no[n+]1[O-]  SF-268 CNS      rule not met
7  Cc1nc(Nc2cn[nH]c2C(=O)Nc2ccc(CN3CCN(C)CC3)cc2)c2ccsc2n1  SF-268 CNS      rule not met
8  Clc1ccc(-c2nnc(COc3ccc(C4=NNC(c5ccco5)C4)cc3)o2)cc1 (stereo not given)  SF-268 CNS      rule not met

---

Test system: T-47D breast
Test: NCI-60 one-dose screen, 48 h
Details: 10 µM unless noted
The panel holds about 83,000 compounds, 20% with a hit somewhere; the sample as a whole holds those more often. Active and inactive are the calls of the source. How the source made its calls: active means growth percent below 10; inactive means the rest.
Outcome codes: active, inactive

>>> df
                                   molecule  qualitativelabel
0  CN1CCN(Cc2ccc(C(=O)Nc3cncc(C#Cc4cnc5cccnn45)c3)cc2C(F)(F)F)CC1          inactive
1  CC1=C(CC(=O)c2cccc([N+](=O)[O-])c2)C(=O)c2ccccc2C1=O            active
2  CCOC(=O)c1sc(-c2ccc(OS(=O)(=O)c3cccs3)c(C=O)c2)nc1C          inactive
3  CC(C)C[C@H](C(=O)N[C@H](C(N)=O)C(C)C)N1CC=CCN(OCc2ccccc2)S1(=O)=O          inactive
4          Cc1[nH]c2ccccc2c(=O)c1CC=C(Cl)Cl            active
5  Nc1ccccc1-c1ccc(-c2ccc(Cl)cc2)c2c1[nH]c1ccccc12          inactive
6  COc1cc(-c2c3c(cn2S(=O)(=O)c2ccccc2)-c2nc(N)sc2CC3)cc(OC)c1OC          inactive
7  CCOC(=O)c1cc2c(n1Cc1cc(OC)cc(OC)c1)-c1oncc1CCC2          inactive
8  O=C1CCC(N2C(=O)c3cccc(NCCCCCCOc4ccc(Nc5nccc(Nc6ccccc6)n5)cc4)c3C2=O)C(=O)N1 (centres undefined)          inactive

---

Tested on: U251 CNS
Assay: NCI-60 one-dose screen, 48 h
Details: 10 µM unless noted
About 83,000 compounds went through this panel and 20% of them were active in at least one assay; those are over-represented in the sample as a whole. Calls of active or inactive are those of the source. How the source made its calls: active means growth percent below 10; inactive means the rest.
Outcome codes: TRUE = active, FALSE = inactive

compound	target	qualitativeLabel
CCOC(=O)c1c(Cl)c2c(n1Cc1ccccc1)-c1oncc1CCC2	U251 CNS	FALSE
O=C(/C=C/c1ccccc1)c1ccc(Nc2nc(NCCO)nc(Nc3ccc(Cl)cc3)n2)cc1	U251 CNS	FALSE
CC[C@]1(O)C[C@@H]2CN(CCc3c([nH]c4ccccc34)[C@@](C(=O)OC)(c3cc4c(cc3OC)N(C)[C@H]3[C@@](O)(C(=O)OC)[C@H](OC(=O)CCCBr)[C@]5(CC)C=CCN6CC[C@]43[C@@H]65)C2)C1	U251 CNS	FALSE
O=S(=O)(c1ccccc1)n1cc2c(c1-c1ccccc1)CCc1sc(Nc3ccccc3)nc1-2	U251 CNS	FALSE
CCOC(=O)C1(C(=O)OCC)N=C(c2ccccc2)C=C1c1ccccc1	U251 CNS	FALSE
COc1cc(NC(=O)CCSc2nc3ccccc3c(=O)n2CCc2ccccn2)cc(OC)c1OC	U251 CNS	FALSE
CN1CCN(Cc2ccc(NC(=O)c3[nH]ncc3Nc3cc(OC4CCCC4)ncn3)cc2)CC1	U251 CNS	FALSE
Cc1cc2c(c(C)c1Cl)C(=O)/C(=C/c1cccc([N+](=O)[O-])c1)O2	U251 CNS	FALSE
O=C(c1ccccc1)N(C(=S)NCCc1ccc(Cl)cc1)c1ccc(Cl)cc1	U251 CNS	FALSE
CC(C)C[C@H](C(=O)N[C@@H](C)C(N)=O)N1CC=CCN(O)S1(=O)=O	U251 CNS	FALSE
CC[C@]1(O)C[C@@H]2CN(CCc3c([nH]c4ccccc34)[C@@](C(=O)OC)(c3cc4c(cc3OC)N(C)[C@H]3[C@@](O)(C(=O)OC)[C@H](OC(C)=O)[C@]5(CC)C=CCN6CC[C@]43[C@@H]65)C2)C1	U251 CNS	FALSE
Cc1ccc(Cn2c(N3CCC(C(=O)NCc4cccs4)CC3)nc3ccccc32)cc1	U251 CNS	FALSE
O=C(c1ccccc1)N(C(=S)NCCc1ccc(Cl)cc1)c1ccccc1	U251 CNS	FALSE
CCC1=C[C@@H]2CN(C1)Cc1c([nH]c3ccccc13)[C@@](C(=O)OC)(c1cc3c(cc1OC)N(C)[C@H]1[C@@](O)(C(=O)OC)[C@H](OC(C)=O)[C@]4(CC)[C@@H]5C[C@@H]5CN5CC[C@]31[C@@H]54)C2	U251 CNS	TRUE
Clc1ccc(COc2ccc(Nc3ncnc4onc(-c5ccccc5)c34)cc2)cc1	U251 CNS	FALSE
COc1ccc(C2C3=C(COC3=O)N(CCO)c3cc4c(cc32)CCC4)cc1 (stereo not drawn)	U251 CNS	FALSE
O=C(Nc1ccc(N2CCNCC2)cn1)c1[nH]ncc1Nc1ncnc2sc3c(c12)CCC3	U251 CNS	TRUE
Cc1cccc2c(=O)c3c(sc12)c(NCCN)nc1ccccc13	U251 CNS	TRUE
Cc1nc2ccccc2c(/C=C/c2ccccc2)c1C(=O)/C=C/c1ccc(Cl)cc1	U251 CNS	TRUE
Nc1ccc(-c2ccc(-c3ccccc3N)c3[nH]c4ccccc4c23)cc1	U251 CNS	FALSE
COc1ccc(/C=C/C(=O)c2c(C)nc3ccccc3c2/C=C/c2ccccc2)c(OC)c1	U251 CNS	FALSE
Brc1ccc(Nc2nc3ccccc3nc2Nc2ccc(Br)cc2)cc1	U251 CNS	TRUE
O=NN(Cc1cccnc1)C(=O)NC1CCCCC1	U251 CNS	FALSE
Cc1cccc2c(=O)c3c(sc12)c(NCCCNCCO)nc1ccccc13	U251 CNS	FALSE
O=C1CCC(N2C(=O)c3cccc(NCCCCCCOc4ccc(Nc5nccc(Nc6ccccc6)n5)cc4)c3C2=O)C(=O)N1 (stereo not drawn)	U251 CNS	FALSE
CC(=O)c1ccc(Cc2ccc(C(C)=O)s2)s1	U251 CNS	FALSE
CCCCc1c(CCC)c(=N)c2ccccc2n1C	U251 CNS	FALSE
Cc1ccc(F)cc1NC(=O)c1cc(Cl)ccc1Nc1ccccc1	U251 CNS	FALSE
COc1ccc(/C=C2\SC(=Nc3ccccc3)NC2=O)cc1	U251 CNS	TRUE
CC1(C)CC2(C)OC2C2(C1)N=NC(=Nc1ccccc1)O2 (stereo not drawn)	U251 CNS	FALSE
CN1C(=O)N(C)C2Nn3c(s/c(=C4\C(=O)N(CCc5ccccc5)c5ccccc54)c3=O)=NC21 (stereo not drawn)	U251 CNS	FALSE
Cc1ccc2cccc(Oc3ccc(Nc4ncnc5onc(-c6ccccc6)c45)cc3)c2n1	U251 CNS	FALSE
O=c1c2cc(F)ccc2sc2c(Nc3ccncc3)nc3ccccc3c12	U251 CNS	TRUE
COc1nc2c(c(=O)n1C)N=C1c3ccccc3C(=O)C1C(c1ccccc1)N2 (stereo not drawn)	U251 CNS	FALSE
COc1cccc(C(=O)Cn2cc(/C=C(\C#N)S(=O)(=O)c3ccccc3)c3ccccc32)c1	U251 CNS	FALSE
CC(C)Cn1c2c(c(=S)[nH]c1=O)CCC2	U251 CNS	FALSE
CCOC(=O)c1c2c(n3cccc(Cl)c13)C(=O)c1ncccc1C2=O	U251 CNS	FALSE
CS(=O)(=O)Nc1ccc(C(=O)NC(C(=O)NO)c2ccc(-c3cccc(F)c3)cc2)cc1 (stereo not drawn)	U251 CNS	FALSE
